Where do the numbers come from? From patent US5126341A.

Recorded Acute toxicity (MLD, Minimum Lethal Dose) p.o. values for a group of molecules are listed next.
system: male dd-mice; conditions: mouse, in vivo, po, 10080 min
recorded.endpoint: Acute toxicity (MLD, Minimum Lethal Dose) p.o.

INSERT INTO assay_data (molecule, value_observed) VALUES
  ('O=C(Nc1cccc([N+](=O)[O-])c1)c1c(O)c2cccnc2n(-c2ccccc2)c1=O [Compound 11]', '> 300 mg/kg'),
  ('O=C(NCc1ccncc1)c1c(O)c2cccnc2n(-c2ccccc2)c1=O [Compound 28]', '> 300 mg/kg'),
  ('Cc1cccc(NC(=O)c2c(O)c3cccnc3n(-c3ccccc3)c2=O)c1 [Compound 9]', '> 300 mg/kg'),
  ('O=C(Nc1cccnc1)c1c(O)c2cccnc2n(-c2ccccc2)c1=O [Compound 4]', '> 300 mg/kg'),
  ('O=C(Nc1ccncc1)c1c(O)c2cccnc2n(-c2ccccc2)c1=O [Compound 5]', '300 mg/kg'),
  ('O=C(NC1=NCCS1)c1c(O)c2cccnc2n(-c2ccccc2)c1=O [Compound 22]', '> 300 mg/kg');
